tested on: COR-L279 (Small Cell Lung Carcinoma); experiment: Bliss excess, mean over the matrix (fraction); higher = more synergy;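 note: after 72 h of two-drug dosing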
Observable: Bliss excess
Please reply with the value in numeric form only.

Enquiry: Which Bliss excess value belongs to CC(=O)Nc1cccc(-n2c(=O)n(C3CC3)c(=O)c3c(Nc4ccc(I)cc4F)n(C)c(=O)c(C)c32)c1 [Trametinib] + Cc1nc(-c2cn3c(n2)-c2ccc(-c4cnn(C(C)(C)C(N)=O)c4)cc2OCC3)n(C(C)C)n1 [Taselisib] (first compound max 1 µM, 7x7, partner max 10 µM) ?
Return: -0.0486

Enquiry: What about Cc1c2c(nn1C)CSCc1cc(n(C)n1)CSc1cc(c3ccccc3c1)OCCCc1c(C(=O)O)n(C)c3c-2c(Cl)ccc13 [AZD5991] + C1CN(CCC1(C(=O)N[C@@H](CCO)C2=CC=C(C=C2)Cl)N)C3=NC=NC4=C3C=CN4 [Capivasertib] (first compound max 1 µM, 7x7, partner max 3 µM) ?
Return: 0.0417
